Test name: Displacement of [125I]Ang 2 from AT2 receptor in pig uterus membranes
Assay type: cell membranes, Sus scrofa, Membrane
Response field label takes label 1 when Ki is strictly below 50 nM and label 0 in all other cases.

Worked set:
CCCCOC(=O)NS(=O)(=O)c1sc(CC(C)C)cc1-c1ccc(CN(C)C(=O)OCC)cc1 : label 1
CCCCOC(=O)NS(=O)(=O)c1sc(CC(C)C)cc1-c1ccc(CC(=O)NC)cc1 : label 0
CCCCOC(=O)NS(=O)(=O)c1sc(CC(C)C)cc1-c1csc(CN(C)C(C)=O)c1 : label 0
CCCCOC(=O)NS(=O)(=O)c1sc(CC(C)C)cc1-c1ccc(CN(C)C=O)cc1 : label 1

Then this molecule:
Record `CCCCOC(=O)NS(=O)(=O)c1sc(CC(C)C)cc1-c1ccc(CC(=O)N(c2ccccc2)c2ccccc2)cc1` : is its Ki strictly below 50 nM?
label 0
